These entries and their values trace back to PubChem BioAssay (NCI).

Catalogue of TGI values
# Test system: OVCAR-4 ovarian
# protocol.details: NCI tumour cell line growth inhibition, 48 h
readout: TGI

# compound, target.entity, readout, result
measured = [
    ("CC(=O)O[C@@H]1C2C(=O)OC(=O)C2C2CCC[C@]23O[C@H]13 (stereo partly specified)", "OVCAR-4 ovarian", "TGI", "> 100 µM"),
    ("O=C1CCC(O)=C1O", "OVCAR-4 ovarian", "TGI", "> 100 µM"),
    ("C=C(C)C1CC=C(C)C2(C1)OCC(C)(C)C(C)O2 (stereo unspecified)", "OVCAR-4 ovarian", "TGI", "41.1 µM"),
    ("CSc1c(C#N)c2n(c3ccccc13)c1ccccc1[n+]2C", "OVCAR-4 ovarian", "TGI", "> 100 µM"),
    ("O=[N+]([O-])c1nccn1COCCBr", "OVCAR-4 ovarian", "TGI", "> 100 µM"),
    ("CN(C)CCCOCCn1c2c(c3ccccc31)CCCC2", "OVCAR-4 ovarian", "TGI", "44.3 µM"),
    ("Cc1ccc(N=Nc2c(C)c(C#N)c(=S)n(C3OC(CO)C(O)C(O)C3O)c2-c2ccccc2)cc1 (stereo unspecified)", "OVCAR-4 ovarian", "TGI", "> 100 µM"),
    ("Cc1c(-c2ccccc2)c(C#N)c2nnc(C(N)=O)c(N)n12", "OVCAR-4 ovarian", "TGI", "> 100 µM"),
    ("COC(=O)C1=C(C(=O)OC)SC(=C(Cl)C(=S)Sc2ccccc2N)S1", "OVCAR-4 ovarian", "TGI", "> 100 µM"),
    ("CCOC(=O)c1cc(/C=C/C(C)=C/C(=O)OC)n(C)c1C", "OVCAR-4 ovarian", "TGI", "> 100 µM"),
    ("Cc1c(Cl)cccc1NC(=O)CC1C(=O)Nc2ccccc2S1(=O)=O (stereo unspecified)", "OVCAR-4 ovarian", "TGI", "67.2 µM"),
]
